# system: T1, soluble human Lag3-IgG1-Fc with biotinylated C-terminal Avi-tag (human, biotin on the C-terminal Avi-tag)
# T1 construct: also called LAG3-Fc-avi; biotinylated LAG3-Fc antigen
# experimental protocol: A375 MHCII competition ELISA at 3 µg/ml, biotinylated Lag3 250 ng/ml; competitor MHCII on A375 cells
outcome measure: % Inhibition

*Q* Reported % Inhibition, binder bivalent P10D1 aVH-Fc (Fc fusion) EVQLVESGGGLVQPGGSLRLSCAASGFSIKDTCIAWVRRAPGKGTELVAEICEDIGYTRYADSVKGRFTISADTSKNTAYLQMNSLRAEDTAVYYCAAKEAGVGFDYWGQGTTVTVSSGGGGSGGGGSDKTHTCPPCPAPEAAGGPSVFLFPPKPKDTLMISRTPEVTCVVVDVSHEDPEVKFNWYVDGVEVHNAKTKPREEQYNSTYRVVSVLTVLHQDWLNGKEYKCKVSNKALGAPIEKTISKAKGQPREPQVYTLPPSRDELTKNQVSLTCLVKGFYPSDIAVEWESNGQPENNYKTTPPVLDSDGSFFLYSKLTVDKSRWQQGNVFSCSVMHEALHNHYTQKSLSLSPGK : ____
*A* 93.4%
